Target: mouse PXR (mPXR) (Mus musculus, UniProt O54915)
Sequence (O54915 whole entry): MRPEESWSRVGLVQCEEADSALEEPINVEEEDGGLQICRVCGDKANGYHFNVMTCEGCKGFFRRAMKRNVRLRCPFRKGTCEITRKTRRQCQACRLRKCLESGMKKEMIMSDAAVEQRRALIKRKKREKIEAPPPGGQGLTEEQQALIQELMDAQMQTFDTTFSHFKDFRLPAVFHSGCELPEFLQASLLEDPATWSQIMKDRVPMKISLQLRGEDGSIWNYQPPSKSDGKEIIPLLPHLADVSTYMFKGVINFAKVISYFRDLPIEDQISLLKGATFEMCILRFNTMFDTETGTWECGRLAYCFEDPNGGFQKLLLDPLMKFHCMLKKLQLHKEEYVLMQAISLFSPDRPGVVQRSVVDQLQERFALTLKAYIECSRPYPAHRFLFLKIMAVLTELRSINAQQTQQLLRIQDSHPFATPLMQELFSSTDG
Assay: In vitro transcription assay, PXR reporter gene (MRP2 luciferase) with mPXR expression plasmid in 293T cells
READOUT_TYPE: EC50
# do not omit the unit; it follows the number

Look up EC50 for this compound: O=C(O)CCc1c[nH]c2ccccc12 550 nM

----------
Target: human PXR (hPXR) (Homo sapiens)
Sequence (O75469 whole entry): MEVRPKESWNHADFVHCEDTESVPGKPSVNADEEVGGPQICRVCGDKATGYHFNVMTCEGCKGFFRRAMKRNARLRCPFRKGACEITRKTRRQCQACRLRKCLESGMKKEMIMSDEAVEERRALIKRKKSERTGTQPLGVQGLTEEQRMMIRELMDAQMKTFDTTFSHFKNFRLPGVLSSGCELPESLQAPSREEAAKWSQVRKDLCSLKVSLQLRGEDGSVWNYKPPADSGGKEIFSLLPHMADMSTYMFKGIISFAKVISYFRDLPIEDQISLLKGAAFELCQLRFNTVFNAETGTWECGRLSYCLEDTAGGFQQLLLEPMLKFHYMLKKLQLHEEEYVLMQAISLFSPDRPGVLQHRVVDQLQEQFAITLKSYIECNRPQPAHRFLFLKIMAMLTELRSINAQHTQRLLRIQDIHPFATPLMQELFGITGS
Experiment: In vitro transcription assay, PXR reporter gene (MRP2 luciferase) with hPXR expression plasmid in 293T cells
READOUT_TYPE: EC50 (µM)
Give the quantity in µM, number only.

Look up EC50 for this compound: O=C(O)CCc1c[nH]c2ccccc12 120
